The measured values listed here are drawn from ChEMBL document CHEMBL5505970.

assay: Clearance in Beagle dog at 0.5 mg/kg, iv formulated as a solution in 10% PG:18% PEG400 in water or 5% NMP:95% (10% VitE TPGS in water) measured for 24 hrs by reverse phase liquid chromatography coupled to mass spectrometry; type: ADME, organism-based, Canis lupus familiaris; conditions: in vivo
quantity measured: clearance (mL/min/kg)
Give just the numeric value; mL/min/kg need not be written.

Requested read-out: clearance. Entry: C[C@@H]1COCCN1c1cc([C@]2(O)C[C@H]3CC[C@@H](C2)O3)c2cnn(-c3cc[nH]n3)c2n1
10.1

----------
assay: Clearance in mouse liver microsomes at 1 uM in presence of NADPH by ESI/LC-MS/MS analysis; format: ADME, Microsome; conditions: read-out: CLH
quantity measured: microsomal CLint at 1 µM (µL/min/mg)
Give just the numeric value; µL/min/mg need not be written.

Requested read-out: microsomal CLint at 1 µM. Entry: C[C@@H]1COCCN1c1cc([C@]2(O)C[C@H]3CC[C@@H](C2)O3)c2cnn(-c3cc[nH]n3)c2n1 [CAMONSERTIB]
25

----------
experiment: Oral bioavailability in Sprague-Dawley rat at 2.5 to 5 mg/kg formulated as a solution in 5% NMP:95% (10% VitE TPGS in water) measured for 24 hrs by reverse phase liquid chromatography coupled to mass spectrometry; type: ADME, organism-based; conditions: in vivo, dose 2.5-5 mg/kg
quantity measured: bioavailability (%)
Give just the numeric value; % need not be written.

Requested read-out: bioavailability. Entry: C[C@@H]1COCCN1c1cc([C@]2(O)C[C@H]3CC[C@@H](C2)O3)c2cnn(-c3cc[nH]n3)c2n1 [CAMONSERTIB]
66

Requested read-out: bioavailability. Entry: C[C@@H]1COCCN1c1cc(C(C)(C)C#N)c2cnn(-c3cc[nH]n3)c2n1
56

Requested read-out: bioavailability. Entry: C[C@@H]1COCCN1c1cc(-c2ccccc2C(N)=O)c2cnn(-c3ccn[nH]3)c2n1
2

----------
target: ATR/ATRIP (Homo sapiens, UniProt Q13535); experiment: Inhibition of human ATR/ATRIP using GST-tagged p53 as substrate in presence of 3 uM ATP by AlphaScreen assay
Sequence (Q13535 whole entry): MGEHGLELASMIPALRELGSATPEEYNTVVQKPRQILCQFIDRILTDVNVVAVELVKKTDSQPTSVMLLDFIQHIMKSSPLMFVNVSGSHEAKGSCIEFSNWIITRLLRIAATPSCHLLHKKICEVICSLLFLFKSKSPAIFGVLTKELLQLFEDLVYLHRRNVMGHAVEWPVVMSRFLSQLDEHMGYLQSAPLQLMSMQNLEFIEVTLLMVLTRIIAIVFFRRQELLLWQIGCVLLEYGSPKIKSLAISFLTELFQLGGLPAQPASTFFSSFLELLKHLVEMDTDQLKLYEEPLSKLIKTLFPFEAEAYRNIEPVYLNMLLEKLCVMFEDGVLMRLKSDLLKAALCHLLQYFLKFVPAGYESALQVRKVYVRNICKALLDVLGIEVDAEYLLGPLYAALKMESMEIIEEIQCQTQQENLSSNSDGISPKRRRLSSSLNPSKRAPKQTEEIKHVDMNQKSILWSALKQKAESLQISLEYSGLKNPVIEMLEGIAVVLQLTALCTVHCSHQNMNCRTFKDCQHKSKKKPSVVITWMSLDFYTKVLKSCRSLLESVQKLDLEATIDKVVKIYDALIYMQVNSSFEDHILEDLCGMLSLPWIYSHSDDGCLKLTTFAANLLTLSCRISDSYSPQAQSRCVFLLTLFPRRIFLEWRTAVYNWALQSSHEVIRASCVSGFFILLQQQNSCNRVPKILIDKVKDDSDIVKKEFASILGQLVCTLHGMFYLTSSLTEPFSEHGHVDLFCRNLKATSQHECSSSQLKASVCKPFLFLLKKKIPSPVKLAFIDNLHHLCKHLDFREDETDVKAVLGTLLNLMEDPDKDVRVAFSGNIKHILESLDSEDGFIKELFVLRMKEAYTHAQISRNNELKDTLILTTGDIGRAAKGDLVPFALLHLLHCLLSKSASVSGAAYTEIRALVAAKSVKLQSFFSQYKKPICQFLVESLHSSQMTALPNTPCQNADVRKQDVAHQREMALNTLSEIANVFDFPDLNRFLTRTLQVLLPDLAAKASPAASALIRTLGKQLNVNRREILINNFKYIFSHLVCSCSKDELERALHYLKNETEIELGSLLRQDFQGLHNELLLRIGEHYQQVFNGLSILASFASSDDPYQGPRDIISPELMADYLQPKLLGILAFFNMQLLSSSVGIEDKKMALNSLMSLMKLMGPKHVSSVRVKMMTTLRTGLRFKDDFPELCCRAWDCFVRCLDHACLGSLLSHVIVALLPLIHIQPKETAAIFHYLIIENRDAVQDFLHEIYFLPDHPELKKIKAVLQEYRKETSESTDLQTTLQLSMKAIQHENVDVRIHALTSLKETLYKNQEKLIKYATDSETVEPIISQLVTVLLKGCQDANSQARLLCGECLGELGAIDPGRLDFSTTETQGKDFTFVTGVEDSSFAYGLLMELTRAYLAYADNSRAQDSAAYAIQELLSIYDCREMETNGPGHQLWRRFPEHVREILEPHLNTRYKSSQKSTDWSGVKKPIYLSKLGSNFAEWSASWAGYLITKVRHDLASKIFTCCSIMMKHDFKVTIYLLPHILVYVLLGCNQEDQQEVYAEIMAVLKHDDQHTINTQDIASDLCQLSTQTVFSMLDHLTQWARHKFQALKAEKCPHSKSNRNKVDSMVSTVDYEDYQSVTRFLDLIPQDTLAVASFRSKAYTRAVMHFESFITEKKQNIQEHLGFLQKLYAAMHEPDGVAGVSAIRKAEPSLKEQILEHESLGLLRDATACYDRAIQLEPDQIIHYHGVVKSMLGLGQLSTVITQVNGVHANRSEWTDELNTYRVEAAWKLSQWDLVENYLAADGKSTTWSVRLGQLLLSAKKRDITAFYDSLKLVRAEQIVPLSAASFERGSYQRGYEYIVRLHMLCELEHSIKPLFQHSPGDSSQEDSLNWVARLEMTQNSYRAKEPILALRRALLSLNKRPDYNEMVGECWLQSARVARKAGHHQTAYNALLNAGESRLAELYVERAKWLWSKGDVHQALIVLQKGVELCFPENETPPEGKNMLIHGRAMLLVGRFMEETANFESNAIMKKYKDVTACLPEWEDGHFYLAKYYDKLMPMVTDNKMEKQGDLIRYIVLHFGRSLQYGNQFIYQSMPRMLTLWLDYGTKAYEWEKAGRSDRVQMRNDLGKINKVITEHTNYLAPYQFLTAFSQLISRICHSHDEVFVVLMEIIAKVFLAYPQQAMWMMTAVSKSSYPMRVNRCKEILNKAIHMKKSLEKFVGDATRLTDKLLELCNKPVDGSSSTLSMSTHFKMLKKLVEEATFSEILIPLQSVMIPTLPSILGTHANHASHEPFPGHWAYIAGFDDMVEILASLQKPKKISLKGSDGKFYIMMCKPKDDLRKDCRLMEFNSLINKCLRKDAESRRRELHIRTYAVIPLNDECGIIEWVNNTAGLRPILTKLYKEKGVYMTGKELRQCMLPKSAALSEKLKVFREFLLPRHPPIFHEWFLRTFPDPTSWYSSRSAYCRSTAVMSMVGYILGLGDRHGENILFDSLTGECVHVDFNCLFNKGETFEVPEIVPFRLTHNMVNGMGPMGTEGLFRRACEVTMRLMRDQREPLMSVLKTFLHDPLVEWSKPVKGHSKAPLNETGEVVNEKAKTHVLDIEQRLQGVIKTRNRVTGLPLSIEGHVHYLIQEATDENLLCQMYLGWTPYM
Sequence (Q8WXE1 whole entry, further chain): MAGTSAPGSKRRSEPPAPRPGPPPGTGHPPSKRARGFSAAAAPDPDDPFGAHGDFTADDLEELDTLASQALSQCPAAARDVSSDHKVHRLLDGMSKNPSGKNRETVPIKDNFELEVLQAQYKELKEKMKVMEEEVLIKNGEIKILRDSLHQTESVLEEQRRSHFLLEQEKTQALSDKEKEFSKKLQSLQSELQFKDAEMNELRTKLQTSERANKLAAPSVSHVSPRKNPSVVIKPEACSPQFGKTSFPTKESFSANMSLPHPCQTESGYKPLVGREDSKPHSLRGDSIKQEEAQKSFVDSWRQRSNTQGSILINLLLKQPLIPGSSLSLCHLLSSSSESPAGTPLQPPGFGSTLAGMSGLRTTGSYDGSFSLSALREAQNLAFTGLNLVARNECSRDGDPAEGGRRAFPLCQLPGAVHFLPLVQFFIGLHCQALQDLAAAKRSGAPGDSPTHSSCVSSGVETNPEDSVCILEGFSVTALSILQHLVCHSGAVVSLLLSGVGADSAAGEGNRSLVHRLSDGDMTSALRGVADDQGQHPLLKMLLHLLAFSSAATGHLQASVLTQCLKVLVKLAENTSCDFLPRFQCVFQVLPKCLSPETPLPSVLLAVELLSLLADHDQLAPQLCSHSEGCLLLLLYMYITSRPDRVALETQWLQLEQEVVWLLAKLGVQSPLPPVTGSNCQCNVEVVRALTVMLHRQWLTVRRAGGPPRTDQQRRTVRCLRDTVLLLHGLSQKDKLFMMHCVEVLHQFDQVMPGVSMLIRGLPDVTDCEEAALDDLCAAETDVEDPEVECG
quantity measured: IC50

Requested read-out: IC50. Entry: Nc1nn2cc(F)cnc2c1C(=O)Nc1cncc(F)c1N1CCC(C(=O)N2CCN(C3COC3)CC2)CC1
160 nM

Requested read-out: IC50. Entry: C[C@@H]1COCCN1c1cc(C2(S(C)(=O)=O)CC2)nc(N(C)c2cc[nH]n2)n1
> 1000 nM

Requested read-out: IC50. Entry: Cc1cc2c(C3(S(C)(=O)=O)CC3)cc(N3CCOC[C@H]3C)nc2n1-c1cc[nH]n1
> 1000 nM

Requested read-out: IC50. Entry: C[C@@H]1COCCN1c1cc(C2(S(C)(=O)=O)CC2)nc(Cc2cc[nH]n2)n1
> 700 nM

Requested read-out: IC50. Entry: C[C@@H]1COCCN1c1cc(C2(S(C)(=O)=O)CC2)nc(S(=O)(=O)c2cc[nH]n2)n1
160 nM

Requested read-out: IC50. Entry: Cc1c[nH]nc1Nc1nc(N2CCOC[C@H]2C)cc(C2(S(C)(=O)=O)CC2)n1
> 1000 nM

----------
test: Clearance in rat liver microsomes at 1 uM in presence of NADPH by ESI/LC-MS/MS analysis; assay type: ADME, Microsome; details: read-out: CLH
quantity measured: microsomal CLint at 1 µM (µL/min/mg)
Give just the numeric value; µL/min/mg need not be written.

Requested read-out: microsomal CLint at 1 µM. Entry: C[C@@H]1COCCN1c1cc([C@]2(O)C[C@H]3CC[C@@H](C2)O3)c2cnn(-c3cc[nH]n3)c2n1 [CAMONSERTIB]
97

----------
target: Serine/threonine-protein kinase ATR (Homo sapiens); test: Inhibition of ATR in gemcitabine-stimulated human LoVo cells assessed as decrease in CHK1 phosphorylation at Ser345 residue; type: cell-based; conditions: lovo
quantity measured: pIC50
// returns pIC50 (minus log10 of molar concentration), number only

Requested read-out: pIC50. Entry: C[C@@H]1COCCN1c1cc([C@]2(O)C[C@H]3CC[C@@H](C2)O3)c2cnn(-c3cc[nH]n3)c2n1 [CAMONSERTIB]
9.48

----------
assay: Clearance in monkey liver microsomes at 1 uM in presence of NADPH by ESI/LC-MS/MS analysis; type: ADME, Macaca mulatta, Microsome; details: rhesus monkey, read-out: CLH
quantity measured: microsomal CLint at 1 µM

Requested read-out: microsomal CLint at 1 µM. Entry: C[C@@H]1COCCN1c1cc([C@]2(O)C[C@H]3CC[C@@H](C2)O3)c2cnn(-c3cc[nH]n3)c2n1
26 µL/min/mg

----------
test: Clearance in rat hepatocytes at 1 uM measured per million cells by ESI/LC-MS/MS analysis; assay type: ADME, cell-based, Hepatocyte; details: read-out: CLH
quantity measured: hepatocyte CLint at 1 µM (µL/min/1e6 cells)
Give just the numeric value; µL/min/1e6 cells need not be written.

Requested read-out: hepatocyte CLint at 1 µM. Entry: C[C@@H]1COCCN1c1cc([C@]2(O)C[C@H]3CC[C@@H](C2)O3)c2cnn(-c3cc[nH]n3)c2n1 [CAMONSERTIB]
17

----------
test: Oral bioavailability in CD-1 mouse at 20 mg/kg formulated as suspension in 0.5% methocel and 0.02% SLS in 50 mM citrate buffer measured for 24 hrs by reverse phase liquid chromatography coupled to mass spectrometry; assay type: ADME, organism-based; settings: in vivo
quantity measured: bioavailability

Requested read-out: bioavailability. Entry: C[C@@H]1COCCN1c1cc([C@]2(O)C[C@H]3CC[C@@H](C2)O3)c2cnn(-c3cc[nH]n3)c2n1 [CAMONSERTIB]
72%

----------
biological target: Serine/threonine-protein kinase ATR (Homo sapiens); assay: Inhibition of ATR in human HeLa S3 cells assessed as decrease in CHK1 phosphorylation at Ser345 residue pretreated for 20 mins followed by gemcitabine stimulation for 3.5 to 4 hrs by AlphaScreen SurFire assay; format: cell-based
quantity measured: IC50 (nM)
Give just the numeric value; nM need not be written.

Requested read-out: IC50. Entry: C[C@@H]1COCCN1c1ccc2cnn(-c3cc[nH]n3)c2n1
60

Requested read-out: IC50. Entry: C[C@@H]1COCCN1c1cc(I)c2cnn(-c3ccn[nH]3)c2n1
7

Requested read-out: IC50. Entry: C[C@@H]1COCCN1c1cc(C(C)(C)O)c2cnn(-c3cc[nH]n3)c2n1
21

Requested read-out: IC50. Entry: Nc1nn2cc(F)cnc2c1C(=O)Nc1cncc(F)c1N1CCC(C(=O)N2CCN(C3COC3)CC2)CC1
5

Requested read-out: IC50. Entry: C[C@@H]1COCCN1c1cc([C@]2(O)C[C@H]3CC[C@@H](C2)O3)c2cnn(-c3cc[nH]n3)c2n1
0.9

Requested read-out: IC50. Entry: C[C@@H]1COCCN1c1cc(C(C)(C)C(N)=O)c2cnn(-c3cc[nH]n3)c2n1
9

Requested read-out: IC50. Entry: C[C@@H]1COCCN1c1cc(C(C)(C)C#N)c2cnn(-c3cc[nH]n3)c2n1
0.8

----------
assay: Oral bioavailability in cynomolgus monkey at 1 mg/kg formulated as suspension in 10% propylene glycol:18% PEG400 in water measured for 24 hrs by reverse phase liquid chromatography coupled to mass spectrometry; type: ADME, organism-based, Macaca fascicularis; settings: in vivo
quantity measured: bioavailability (%)
Give just the numeric value; % need not be written.

Requested read-out: bioavailability. Entry: C[C@@H]1COCCN1c1cc([C@]2(O)C[C@H]3CC[C@@H](C2)O3)c2cnn(-c3cc[nH]n3)c2n1
56

----------
test: Clearance in dog liver microsomes at 1 uM in presence of NADPH by ESI/LC-MS/MS analysis; format: ADME, Canis lupus familiaris, Microsome; conditions: read-out: CLH
quantity measured: microsomal CLint at 1 µM

Requested read-out: microsomal CLint at 1 µM. Entry: C[C@@H]1COCCN1c1cc([C@]2(O)C[C@H]3CC[C@@H](C2)O3)c2cnn(-c3cc[nH]n3)c2n1
< 11.6 µL/min/mg

----------
assay: Oral bioavailability in Beagle dog at 5 mg/kg formulated as suspension in 0.5% methocel and 0.02% SLS in 50 mM citrate buffer measured for 24 hrs by reverse phase liquid chromatography coupled to mass spectrometry; type: ADME, organism-based, Canis lupus familiaris; details: in vivo
quantity measured: bioavailability (%)
Give just the numeric value; % need not be written.

Requested read-out: bioavailability. Entry: C[C@@H]1COCCN1c1cc([C@]2(O)C[C@H]3CC[C@@H](C2)O3)c2cnn(-c3cc[nH]n3)c2n1 [CAMONSERTIB]
113

----------
target: Serine/threonine-protein kinase mTOR (Homo sapiens); test: Inhibition of human full length recombinant mTOR measured after 40 mins in presence of [gamma-33P]ATP by radiometric scintillation counting analysis
quantity measured: IC50 (µM)
Give just the numeric value; µM need not be written.

Requested read-out: IC50. Entry: CNCc1ccc(-c2cc(-c3nc(-c4ccc(S(=O)(=O)C(C)C)cc4)cnc3N)on2)cc1 [BERZOSERTIB]
4.8
